- System: FAB9
- Test: qHTS profiling for inhibitors of Plasmodium falciparum proliferation (AID 504749); further: nearly all actives have a fitted effect of over 60% in size
- Test settings: P. falciparum in erythrocytes, SYBR Green DNA, 72 h; series mostly up to 28.7 µM
Records with an inconclusive call do not appear. Activity calls are given as the source filed them. The call rests on the fitted dose curve; in most records, active means well fitted inhibition curve with a large enough effect; inconclusive means small, poorly fitted or top-dose-only effect; inactive means flat fitted curve, though single readings scatter. Numbered stars: 1 amine (or outer) side, 2 acyl side, 3 side chain; on linkers, the order of the positions; unused ones are H or OH. Bridge positions count the residues as written; N and C are the ends. Square brackets hold non-standard residues; d marks the D form. Peptide text beside a SMILES is read from it. I, II: the chains in the order shown. Actinocin(9to1) = Cc1c2oc3c(C)ccc(C(=O)[*:1])c3nc-2c(C(=O)[*:2])c(N)c1=O; NMeV = CN[C@H](C(=O)O)C(C)C; Sar = CNCC(=O)O
Outcomes you can answer with include only these: true (1) (active), false (0) (inactive)

Problem: Please state the recorded outcome for this compound: CCN(CC)C(=O)/C(C#N)=C/c1cc(O)c(O)c([N+](=O)[O-])c1
Result: false (0)

Problem: Hello, I am checking results. What call was entered for Cc1c2oc3c(C)ccc(C(=O)N[C@@H]4C(=O)N[C@H](C(C)C)C(=O)N5CCC[C@H]5C(=O)N(C)CC(=O)N(C)[C@@H](C(C)C)C(=O)O[C@@H]4C)c3nc-2c(C(=O)N[C@@H]2C(=O)N[C@H](C(C)C)C(=O)N3CCC[C@H]3C(=O)N(C)CC(=O)N(C)[C@@H](C(C)C)C(=O)O[C@@H]2C)c(N)c1=O (I: T[dV]P[Sar][NMeV] / II: T[dV]P[Sar][NMeV]; ester I:1-I:C, II:1-II:C; linker I:N-II:N via Actinocin(9to1)) ?
Result: true (1)

Problem: Assay result, entry CC(C)NC[C@@H](O)COc1cccc2ccccc12 — outcome?
Result: false (0)

Problem: # lookup: test call for Cc1ccc(O)c2ncccc12
Result: false (0)

Problem: Each compound tested received a call. Report the one for Nc1cc(Cl)c(NC2=NCCN2)c(Cl)c1 .
Result: false (0)

Problem: In this assay, the call recorded for O=C1OC(c2ccc(O)cc2)(c2ccc(O)cc2)c2ccccc21 was what?
Result: false (0)

Problem: For COc1cccc2c1C(=O)c1c(O)c3c(c(O)c1C2=O)C[C@@](O)(C(C)=O)C[C@@H]3O[C@H]1C[C@H](N)[C@H](O)[C@H](C)O1 , which call appears in the assay record?
Result: true (1)

Problem: Test call for this compound, please: NCCCC[C@H](N[C@@H](CCc1ccccc1)C(=O)O)C(=O)N1CCC[C@H]1C(=O)O
Result: false (0)

Problem: Fill in: this test's call for O=C1[C@H]2CCCC[C@H]2C(=O)N1CCCCN1CCN(c2nsc3ccccc23)CC1 is ___
Result: false (0)

Problem: Write down the call the test reported for this compound. Item: NC(=NCCCCCCN=C(N)/N=C(\N)Nc1ccc(Cl)cc1)/N=C(\N)Nc1ccc(Cl)cc1
Result: true (1)

Problem: Could you check what this test reported for Oc1ccc(Cl)cc1Sc1cc(Cl)ccc1O ?
Result: false (0)

Problem: Assay outcome for COc1cc(NS(C)(=O)=O)ccc1Nc1c2ccccc2nc2ccccc12 : what was it?
Result: true (1)

Problem: Which outcome was assigned to C[C@]12CC[C@@H]3c4ccc(O)cc4CC[C@H]3[C@@H]1CC[C@@H]2O in this test?
Result: false (0)

Problem: Which outcome did this test record for the compound Cc1cc(N)c2cc(NC(=O)Nc3ccc4nc(C)cc(N)c4c3)ccc2n1 ?
Result: true (1)

Problem: Given CCOC(=O)COc1ccc2c(C)c(CCN(CC)CC)c(=O)oc2c1Cl , state the outcome it received in this test.
Result: false (0)

Problem: Give the logged outcome of this assay for the following compound: O=C1CCC(c2ccc(-n3ccnc3)cc2)=NN1
Result: false (0)

Problem: Could you check what this test reported for COCc1c(C(C)C)nc(C(C)C)c(/C=C/[C@@H](O)C[C@@H](O)CC(=O)O)c1-c1ccc(F)cc1 ?
Result: false (0)

Problem: Give the logged outcome of this assay for the following compound: O=c1ccc2ccccc2o1
Result: false (0)

Problem: Test call, this compound: CCCCCCCCCCCCCCCCOP(=O)([O-])OCC[N+](C)(C)C
Result: false (0)

Problem: Please state the recorded outcome for this compound: C=CCc1ccc(O)c(OC)c1
Result: false (0)

Problem: For Cc1c(C)n(CCN(C)C)c2ccc(C(=O)OCCN(C)C)cc12 , what call appears in the results of this test?
Result: false (0)

Problem: Name the outcome recorded for C[C@@H]1C(=O)NC2=Nc3cccc(Cl)c3CN21 in the assay.
Result: false (0)

Problem: I would be grateful if you could indicate the recorded call for O=C(Nc1ccc(Oc2ccc(Cl)cc2)c(Cl)c1)c1cc(I)cc(I)c1O .
Result: false (0)

Problem: Status in this test for CC(C)(Oc1ccc(Cl)cc1)C(=O)O ?
Result: false (0)

Problem: How did this test come out for OCc1ccccc1O ?
Result: false (0)

Problem: For this compound, state the assay outcome: Nc1ccc(/C=C/c2ccc(N)cc2S(=O)(=O)O)c(S(=O)(=O)O)c1
Result: false (0)

Problem: Which outcome was assigned to CN1CCN(C(c2ccccc2)c2ccccc2)CC1 in this test?
Result: false (0)

Problem: // return assay outcome for Cc1cc(O)c(C(C)C)cc1Cl
Result: false (0)

Problem: Per the assay record, what outcome was assigned to CC(=O)Oc1ccc(C(c2ccc(OC(C)=O)cc2)c2ccccn2)cc1 ?
Result: false (0)

Problem: Hi team, can someone confirm the assay call for CCCCCCCCCCCCCCCC[N+](C)(C)CCN(Cc1ccc(OC)cc1)c1ncccn1 ?
Result: false (0)

Problem: Look up the recorded call for c1ccc(CNCCNCc2ccccc2)cc1 in this test.
Result: false (0)

Problem: # outcome recorded in this test, key = CN1CCC[C@@H]1c1cccnc1
Result: false (0)

Problem: Please share the test call associated with CCCn1c(=O)[nH]c(=O)c2[nH]cnc21 .
Result: false (0)

Problem: What is the recorded call for this compound in the test? COc1ccc(CCN2CCC(Nc3nc4ccccc4n3Cc3ccc(F)cc3)CC2)cc1
Result: true (1)

Problem: What did the test return for CN(C)CCOc1ccccc1Cc1ccccc1 ?
Result: false (0)

Problem: Could you check what this test reported for C[N+]1(CCCCC[N+]2(C)CCCC2)CCCC1 ?
Result: false (0)

Problem: # lookup: test call for COc1cc(C(=S)N2CCOCC2)cc(OC)c1OC
Result: false (0)

====

- System: 7G8
- Test: qHTS profiling for inhibitors of Plasmodium falciparum proliferation (AID 504749); further: nearly all actives have a fitted effect of over 60% in size; further: potency means the concentration at half of the fitted maximal effect
- Test settings: P. falciparum in erythrocytes, SYBR Green DNA, 72 h; series mostly up to 28.7 µM
Inconclusive results are not listed. Calls of active or inactive are those of the source. Calls follow the shape of the dose curve; as a rule, active = well fitted inhibition curve with a large enough effect; inconclusive = small, poorly fitted or top-dose-only effect; inactive = flat fitted curve, though single readings scatter.
Readout kind: Potency

Example molecules with recorded Potency:
CN(C)CC/C=C1\c2ccccc2Sc2ccc(Cl)cc21; 12.6 µM (active)
CCOc1ccc(Cc2nccc3cc(OCC)c(OCC)cc23)cc1OCC; inactive
O=C1c2ccccc2C(=O)C1c1ccccc1; inactive
CCCCCCCCCCOCC(O)CN (stereo not drawn); 12.6 µM (active)
COc1cc(C(=S)N2CCOCC2)cc(OC)c1OC; inactive
C[C@@H]1C[C@H]2[C@@H]3CCC4=CC(=O)C=C[C@]4(C)[C@@]3(F)[C@@H](O)C[C@]2(C)[C@H]1C(=O)CO; 11.2 µM (active)
CC(=O)OCC(=O)[C@@]1(OC(C)=O)[C@@H](C)C[C@H]2[C@@H]3C[C@H](F)C4=CC(=O)C=C[C@]4(C)[C@@]3(F)[C@@H](O)C[C@@]21C; 8.91 µM (active)
O=C(COc1ccc(Cl)cc1)N1CCN(Cc2ccc3c(c2)OCO3)CC1; inactive

Problem: Specify Potency for CCCCC(CC)CN=C(N)NC(N)=NCCCCCCN=C(N)NC(N)=NCC(CC)CCCC (stereo not drawn) , system 7G8.
Result: 0.316 µM (active)

Problem: Enter recorded Potency with 7G8 for NC(=NCCCCCCN=C(N)/N=C(\N)Nc1ccc(Cl)cc1)/N=C(\N)Nc1ccc(Cl)cc1 here.
Result: 0.251 µM (active)

Problem: Write Potency of CCN1CCC[C@H]1CNC(=O)c1c(OC)ccc(Br)c1OC ; system used: 7G8
Result: inactive

Problem: Provide Potency, recorded with 7G8, of Cc1ccc(C(=O)C(C)CN2CCCCC2)cc1 (stereo not drawn)
Result: 11.2 µM (active)

Problem: Under 7G8: report Potency of CCCCCCCCCCCCCCCCCC(=O)OCC(O)CO (stereo not drawn) .
Result: inactive

Problem: GET Potency where system = 7G8 and item = COc1cc(OC)cc(OC)c1
Result: inactive

Problem: State Potency (7G8) of c1ccc(CNCCNCc2ccccc2)cc1 .
Result: 10 µM (active)

Problem: System 7G8. Read-out Potency. Item CO/N=C1\CN(c2nc3c(cc2F)c(=O)c(C(=O)O)cn3C2CC2)CC1CN (stereo not drawn) . Report value.
Result: 7.94 µM (active)

Problem: Provide measured Potency on 7G8 for CCOC(=O)/C=C(C)/C=C/C=C(C)/C=C/c1c(C)cc(OC)c(C)c1C please.
Result: 12.6 µM (active)

Problem: State the measured Potency (7G8) of CC(C)NC[C@@H](O)COc1cccc2ccccc12
Result: 5.62 µM (active)

Problem: Recall the reported Potency of C[C@H](O)C(=O)Nc1c(I)c(C(=O)NC(CO)CO)c(I)c(C(=O)NC(CO)CO)c1I when tested on 7G8.
Result: inactive

Problem: Identify measured Potency obtained with 7G8 for CCN(CC)CCOc1ccc(C(O)(Cc2ccc(Cl)cc2)c2ccc(C)cc2)cc1 (stereo not drawn) .
Result: 5.01 µM (active)
